// values below are reported TGI
# Test system: U251 CNS
# ASSAY: NCI tumour cell line growth inhibition, 48 h

Data request: # input compound: C=C=C(Sc1ccccc1)C(C)(C)O ; wanted: its TGI
Data returned: > 100 µM

Data request: Same for CC(=O)OCC1OC(Nc2ccc3nc(C)n(-c4ccccc4)c(=O)c3c2)C(OC(C)=O)C(OC(C)=O)C1OC(C)=O (centres undefined)
Data returned: > 50 µM

Data request: Same for Nc1ccccc1Nc1ccccc1C(=O)[O-].Nc1ccccc1Nc1ccccc1C(=O)[O-].[Ni+2]
Data returned: > 100 µM

Data request: Same for CN(C)CC1CC/C(=C\c2ccc(Cl)cc2)C1=O (centres undefined)
Data returned: 14 µM

Data request: Same for O=C(CN(/C=C/C(=O)C(F)(F)F)c1ccc(Cl)cc1)c1ccc(F)cc1
Data returned: 23 µM

Data request: Same for CC(C)Oc1ccc(-c2nn([C@@H](C)c3oc4ccc(F)cc4c(=O)c3-c3cccc(F)c3)c3ncnc(N)c23)cc1F
Data returned: > 100 µM

Data request: Same for CCn1c2ccccc2c2cc(N=Nc3ccc(C#N)cc3)ccc21
Data returned: > 100 µM

Data request: Same for CCCCCCCCCCCCCC(=O)NCO
Data returned: > 100 µM

Data request: Same for O=S(=O)(c1ccccc1)n1c(C(O)c2ccccc2)cc2ccccc21 (centres undefined)
Data returned: 43.7 µM

Data request: Same for Cn1ccc2c1SSSSS2
Data returned: > 100 µM

Data request: Same for CCNc1cnc2c(n1)c(=O)n(C)c(=O)n2C
Data returned: > 100 µM

Data request: Same for CCN=c1nc2sc3c(c2c(NC(=S)NCC)s1)CCN(N1CCc2c(sc4nc(=NCC)sc(NC(=S)NCC)c24)C1)C3
Data returned: > 100 µM

Data request: Same for CCOC(=O)/C(C#N)=C\C=C(\Sc1nc2ccccc2s1)c1ccc(Cl)cc1
Data returned: > 100 µM

Data request: Same for CCOc1ccc(NC(=O)/C(=C\c2ccc(C)cc2)C(C)=O)cc1
Data returned: > 100 µM
